# Tested on: HCC1143
# test.protocol: normalised viability (% of control), CellTiter-Blue; higher = more viable cells (about 100 = DMSO control)
# measurement.setup: 100 nM; incubation time: 72 h
Entries and their normalised viability values follow.
property.label: normalised viability (%)

[[record]]
compound = "COc1ccc(-c2ccc3c(N4CCOC[C@@H]4C)nc(N4CCOC[C@@H]4C)nc3n2)cc1CO"
value = 55.8

[[record]]
compound = "CC[C@]1(O)C[C@H]2CN(CCc3c([nH]c4ccccc34)[C@@](C(=O)OC)(c3cc4c(cc3OC)N(C=O)[C@H]3[C@@](O)(C(=O)OC)[C@H](OC(C)=O)[C@]5(CC)C=CCN6CC[C@]43[C@@H]65)C2)C1"
value = 40.4

[[record]]
compound = "Cn1cncc1[C@@](N)(c1ccc(Cl)cc1)c1ccc2c(c1)c(-c1cccc(Cl)c1)cc(=O)n2C"
value = 61.6

[[record]]
compound = "CNNCc1ccc(C(=O)NC(C)C)cc1"
value = 98.7


----------
# Test system: MDA-MB-436
# measurement.setup: 72 h
Entries and their EC50, CellTiter-Glo values follow.
property.label: EC50, CellTiter-Glo (nM)

[[record]]
compound = "CO[C@H]1C[C@@H]2CC[C@@H](C)[C@@](O)(O2)C(=O)C(=O)N2CCCC[C@H]2C(=O)O[C@H]([C@H](C)C[C@@H]2CC[C@@H](OCCO)[C@H](OC)C2)CC(=O)[C@H](C)/C=C(\\C)[C@@H](O)[C@@H](OC)C(=O)[C@H](C)C[C@H](C)/C=C/C=C/C=C/1C"
target_desc = "MDA-MB-436"
readout_qualifier = "="
value = 0.76

[[record]]
compound = "CN1CCN(CCOc2cc(OC3CCOCC3)c3c(Nc4c(Cl)ccc5c4OCO5)ncnc3c2)CC1"
target_desc = "MDA-MB-436"
readout_qualifier = ">"
value = 10000

[[record]]
compound = "COc1ccc(-c2ccc3c(N4CCOC[C@@H]4C)nc(N4CCOC[C@@H]4C)nc3n2)cc1CO"
target_desc = "MDA-MB-436"
readout_qualifier = "="
value = 11.6


----------
# Tested on: SK-BR-3
# test.protocol: normalised response (% of control), CellTiter-Glo; higher = more viable cells (100 = DMSO, 0 = benzethonium chloride kill control)
# measurement.setup: incubation time: 72 h
property.label: normalised response (%)

[[record]]
compound = "CN(C)CCN1C(=O)c2cccc3cc(N)cc(c23)C1=O [Amonafide] (1 nM)"
unit_name = "%"
value = 103

[[record]]
compound = "CO[C@H]1C[C@@H]2CC[C@@H](C)[C@@](O)(O2)C(=O)C(=O)N2CCCC[C@H]2C(=O)O[C@H]([C@H](C)C[C@@H]2CC[C@@H](OCCO)[C@H](OC)C2)CC(=O)[C@H](C)/C=C(\\C)[C@@H](O)[C@@H](OC)C(=O)[C@H](C)C[C@H](C)/C=C/C=C/C=C/1C [Everolimus] (0.1 nM)"
unit_name = "%"
value = 92

[[record]]
compound = "NS(=O)(=O)OC[C@@H]1C[C@@H](n2ccc3c(N[C@H]4CCc5ccccc54)ncnc32)C[C@@H]1O [Pevonedistat] (1 nM)"
unit_name = "%"
value = 107

[[record]]
compound = "CN1CCN(CCOc2cc(OC3CCOCC3)c3c(Nc4c(Cl)ccc5c4OCO5)ncnc3c2)CC1 [Saracatinib] (1 nM)"
unit_name = "%"
value = 98.6

[[record]]
compound = "CC(C)c1c(C(=O)Nc2ccccc2)c(-c2ccccc2)c(-c2ccc(F)cc2)n1CC[C@@H](O)C[C@@H](O)CC(=O)O [Atorvastatin] (1000 nM)"
unit_name = "%"
value = 102

[[record]]
compound = "Cn1c(=O)n(-c2ccc(C(C)(C)C#N)cc2)c2c3cc(-c4cnc5ccccc5c4)ccc3ncc21 [Dactolisib] (100 nM)"
unit_name = "%"
value = 30

[[record]]
compound = "Cn1c(=O)n(-c2ccc(C(C)(C)C#N)cc2)c2c3cc(-c4cnc5ccccc5c4)ccc3ncc21 [Dactolisib] (0.1 nM)"
unit_name = "%"
value = 111


----------
# System: Hs578T
# test.protocol: drug sensitivity score (DSS), CellTiter-Blue viability (DSS (AUC-based score)); higher = stronger viability inhibition; extreme values may be limits of the assay
# measurement.setup: incubation time: 72 h
property.label: drug sensitivity score

[[record]]
molecule = "C/C(=C\\c1csc(C)n1)[C@@H]1C[C@@H]2O[C@]2(C)CCC[C@H](C)[C@H](O)[C@@H](C)C(=O)C(C)(C)[C@@H](O)CC(=O)O1"
target_desc = "Hs578T"
property_label = "drug sensitivity score"
value = 23.1

[[record]]
molecule = "COc1ccc(-c2ccc3c(N4CCOC[C@@H]4C)nc(N4CCOC[C@@H]4C)nc3n2)cc1CO"
target_desc = "Hs578T"
property_label = "drug sensitivity score"
value = 23.6

[[record]]
molecule = "CN(C)CCN1C(=O)c2cccc3cc(N)cc(c23)C1=O [Amonafide]"
target_desc = "Hs578T"
property_label = "drug sensitivity score"
value = 1.1

[[record]]
molecule = "Cc1ccc(NC(=O)c2ccc(CN3CCN(C)CC3)cc2)cc1Nc1nccc(-c2cccnc2)n1"
target_desc = "Hs578T"
property_label = "drug sensitivity score"
value = 0


----------
Entries and their normalised response values follow.
# Tested on: CAL-120
# test.protocol: normalised response (% of control), CellTiter-Glo; higher = more viable cells (100 = DMSO, 0 = benzethonium chloride kill control)
# measurement.setup: incubation time: 72 h
property.label: normalised response (%)

[[record]]
compound = "Cn1c(=O)n(-c2ccc(C(C)(C)C#N)cc2)c2c3cc(-c4cnc5ccccc5c4)ccc3ncc21 [Dactolisib] (100 nM)"
unit_name = "%"
value = 29.1

[[record]]
compound = "COc1ccccc1S(=O)(=O)Nc1ccc2c(c1)CN(C)C(=O)N2 [PFI-1] (1 nM)"
unit_name = "%"
value = 100

[[record]]
compound = "CN1CCN(CCOc2cc(OC3CCOCC3)c3c(Nc4c(Cl)ccc5c4OCO5)ncnc3c2)CC1 [Saracatinib] (1000 nM)"
unit_name = "%"
value = 81.9

[[record]]
compound = "CN(C)CCN1C(=O)c2cccc3cc(N)cc(c23)C1=O [Amonafide] (10 nM)"
unit_name = "%"
value = 97

[[record]]
compound = "COc1ccc(-c2ccc3c(N4CCOC[C@@H]4C)nc(N4CCOC[C@@H]4C)nc3n2)cc1CO [AZD8055] (10 nM)"
unit_name = "%"
value = 81.1

[[record]]
compound = "Nc1nc(OCc2cc(Br)cs2)c2[nH]cnc2n1 [Lomeguatrib] (1000 nM)"
unit_name = "%"
value = 96.6

[[record]]
compound = "O=C1NC(=O)[C@@H](c2cn3c4c(cccc24)CCC3)[C@@H]1c1c[nH]c2ccccc12 [Tivantinib] (1 nM)"
unit_name = "%"
value = 100

[[record]]
compound = "CC(C)(C#N)c1cc(Cn2cncn2)cc(C(C)(C)C#N)c1 [Anastrozole] (1 nM)"
unit_name = "%"
value = 101


----------
Entries and their normalised response values follow.
# Test system: DU-4475
# test.protocol: normalised response (% of control), CellTox Green; higher = less cell death (100 = DMSO, 0 = benzethonium chloride kill control)
# measurement.setup: incubation time: 72 h
property.label: normalised response (%)

[[record]]
molecule = "Nc1nc(OCc2cc(Br)cs2)c2[nH]cnc2n1 [Lomeguatrib] (1000 nM)"
target_desc = "DU-4475"
property_label = "normalised response"
value = 101

[[record]]
molecule = "Cn1c(=O)n(-c2ccc(C(C)(C)C#N)cc2)c2c3cc(-c4cnc5ccccc5c4)ccc3ncc21 [Dactolisib] (10 nM)"
target_desc = "DU-4475"
property_label = "normalised response"
value = 104

[[record]]
molecule = "COc1ccc(-c2ccc3c(N4CCOC[C@@H]4C)nc(N4CCOC[C@@H]4C)nc3n2)cc1CO [AZD8055] (10000 nM)"
target_desc = "DU-4475"
property_label = "normalised response"
value = 82.6

[[record]]
molecule = "O=C1NC(=O)[C@@H](c2cn3c4c(cccc24)CCC3)[C@@H]1c1c[nH]c2ccccc12 [Tivantinib] (10 nM)"
target_desc = "DU-4475"
property_label = "normalised response"
value = 100

[[record]]
molecule = "c1ccc([C@H]2CN3CCSC3=N2)cc1 [Levamisole] (1000 nM)"
target_desc = "DU-4475"
property_label = "normalised response"
value = 106

[[record]]
molecule = "CN1CCN(CCOc2cc(OC3CCOCC3)c3c(Nc4c(Cl)ccc5c4OCO5)ncnc3c2)CC1 [Saracatinib] (100 nM)"
target_desc = "DU-4475"
property_label = "normalised response"
value = 102

[[record]]
molecule = "CC(C)c1c(C(=O)Nc2ccccc2)c(-c2ccccc2)c(-c2ccc(F)cc2)n1CC[C@@H](O)C[C@@H](O)CC(=O)O [Atorvastatin] (100 nM)"
target_desc = "DU-4475"
property_label = "normalised response"
value = 103

